Assay: Experiment 3: permeability of hydrophilic cosurfactant to the gelatin shell, content in soft capsule in course of time
Assay type: physicochemical
Settings: solvent:Cremophor RH40 3:7 in soft capsule; day 5
Method: Propylene glycol which contains --OH group in its molecular structure and therefore has high hygroscopic and hydrophilic properties is distributed in the capsule shell according to the movement of water present in the contents and gelatin capsule during encapsulation and drying procedures and therefore, is permeated to the capsule shell in course of time. […] The content of each solvent in each soft capsule preparation was analyzed by gas chromatography and HPLC. […]
Test readout: Change of the content of hydrophilic cosurfactant (wt %)

>>> df
                                   compound  unit_info  measured_result
0  CCOCCOCCO [Transcutol, diethyleneglycol monoethyl ether]       wt %             22.1
1  CC(O)CO (stereo not shown) [Propylene glycol, 1,2-propylene glycol]       wt %             21.9
2  CO[C@H]1CO[C@H]2[C@@H]1OC[C@H]2OC [Dimethylisosorbide]       wt %             28.2
3  CC1COC(=O)O1 (racemic) [Propylene carbonate, (±)-4-methyl-1,3-dioxolan-2-one]       wt %             29.8

###

Assay: Experiment 3: permeability of hydrophilic cosurfactant to the gelatin shell, content in soft capsule in course of time
Type: physicochemical
Settings: solvent:Cremophor RH40 3:7 in soft capsule; day 0
Measured Change of the content of hydrophilic cosurfactant, listed per entry for reference.
Test readout: Change of the content of hydrophilic cosurfactant (wt %)

                                   compound  measured_result
0                CC(O)CO (stereo not shown)             29.9
1  CCOCCOCCO [Transcutol, diethyleneglycol monoethyl ether]             30.1
2  CC1COC(=O)O1 (racemic) [Propylene carbonate, (±)-4-methyl-1,3-dioxolan-2-one]             30.1
3  CO[C@H]1CO[C@H]2[C@@H]1OC[C@H]2OC [Dimethylisosorbide]             30.0

###

Experiment: Experiment 3: permeability of hydrophilic cosurfactant to the gelatin shell, content in soft capsule in course of time
Type: physicochemical
Settings: solvent:Cremophor RH40 3:7 in soft capsule; day 15
Measured Change of the content of hydrophilic cosurfactant, listed per entry for reference.
Test readout: Change of the content of hydrophilic cosurfactant

>>> print(df.to_string())
                                   compound  measured_result
0  CCOCCOCCO [Transcutol, diethyleneglycol monoethyl ether]        23.1 wt %
1  CC1COC(=O)O1 (racemic) [Propylene carbonate, (±)-4-methyl-1,3-dioxolan-2-one]        28.6 wt %
2  CO[C@H]1CO[C@H]2[C@@H]1OC[C@H]2OC [Dimethylisosorbide]        29.1 wt %
3  CC(O)CO (stereo not shown) [Propylene glycol, 1,2-propylene glycol]        22.8 wt %

###

Experiment: Experiment 3: permeability of hydrophilic cosurfactant to the gelatin shell, content in soft capsule in course of time
Assay type: physicochemical
Details: solvent:Cremophor RH40 3:7 in soft capsule; day 120
Test readout: Change of the content of hydrophilic cosurfactant

>>> df
                                   compound  measured_result
0  CC1COC(=O)O1 (racemic) [Propylene carbonate, (±)-4-methyl-1,3-dioxolan-2-one]        28.0 wt %
1  CCOCCOCCO [Transcutol, diethyleneglycol monoethyl ether]        20.3 wt %
2                CC(O)CO (stereo not shown)        19.5 wt %
3  CO[C@H]1CO[C@H]2[C@@H]1OC[C@H]2OC [Dimethylisosorbide]        25.8 wt %

###

Measured Change of the content of hydrophilic cosurfactant, listed per entry for reference.
Test: Experiment 3: permeability of hydrophilic cosurfactant to the gelatin shell, content in soft capsule in course of time
Type: physicochemical
Conditions: solvent:Cremophor RH40 3:7 in soft capsule; day 60
Test readout: Change of the content of hydrophilic cosurfactant (wt %)

                                   compound  measured_result
0  CO[C@H]1CO[C@H]2[C@@H]1OC[C@H]2OC [Dimethylisosorbide]             28.0
1  CC1COC(=O)O1 (racemic) [Propylene carbonate, (±)-4-methyl-1,3-dioxolan-2-one]             28.7
2  CCOCCOCCO [Transcutol, diethyleneglycol monoethyl ether]             22.1
3                CC(O)CO (stereo not shown)             22.4

###

Assay: Experiment 3: permeability of hydrophilic cosurfactant to the gelatin shell, content in soft capsule in course of time
Assay type: physicochemical
Conditions: solvent:Cremophor RH40 3:7 in soft capsule; day 90
Measured Change of the content of hydrophilic cosurfactant, listed per entry for reference.
Test readout: Change of the content of hydrophilic cosurfactant (wt %)

>>> df
                                   compound  unit_info  measured_result
0  CCOCCOCCO [Transcutol, diethyleneglycol monoethyl ether]       wt %             21.7
1  CC1COC(=O)O1 (racemic) [Propylene carbonate, (±)-4-methyl-1,3-dioxolan-2-one]       wt %             27.4
2  CO[C@H]1CO[C@H]2[C@@H]1OC[C@H]2OC [Dimethylisosorbide]       wt %             26.6
3                CC(O)CO (stereo not shown)       wt %             21.5
